Reported MIC, S. aureus 25923 by item:
- Test system: S. aureus 25923
- Assay type: cell-based, Staphylococcus aureus
Non-standard residues stand in square brackets, D forms with d. Residues, ends and D or L forms follow the SMILES beside them. *: point of attachment. Lauroyl = CCCCCCCCCCCC(=O)*
Give just the numeric value; µM need not be written.

N=C(N)NCCC[C@H](NC(=O)[C@@H](CCCNC(=N)N)NC(=O)[C@H](Cc1cccc2ccccc12)NC(=O)[C@H](Cc1cccc2ccccc12)NC(=O)[C@H](Cc1cccc2ccccc12)NC(=O)[C@@H](N)Cc1cccc2ccccc12)C(=O)N[C@@H](CCCNC(=N)N)C(=O)N1CCC[C@H]1C(=O)O (stereo in doubt) [Peptide N4] ... 4
CCCCCCCCCCCC(=O)N[C@H](CCCNC(=N)N)C(=O)N[C@@H](CCCNC(=N)N)C(=O)N[C@@H](CCCNC(=N)N)C(=O)N1CCC[C@H]1C(=O)O [Peptide C12] (Lauroyl-[dR]RRP-OH) ... 64
C[C@H](N)C(=O)N[C@@H](C)C(=O)N[C@@H](C)C(=O)N[C@@H](C)C(=O)N[C@@H](C)C(=O)N[C@@H](C)C(=O)N[C@H](CCCNC(=N)N)C(=O)N[C@@H](CCCNC(=N)N)C(=O)N[C@@H](CCCNC(=N)N)C(=O)N1CCC[C@H]1C(=O)O [Peptide A6] (H-AAAAAA[dR]RRP-OH) ... 256

Query compound follows.
MIC, S. aureus 25923 for C[C@H](N)C(=O)N[C@@H](C)C(=O)N[C@@H](C)C(=O)N[C@@H](C)C(=O)N[C@H](CCCNC(=N)N)C(=O)N[C@@H](CCCNC(=N)N)C(=O)N[C@@H](CCCNC(=N)N)C(=O)N1CCC[C@H]1C(=O)O [Peptide A4] (H-AAAA[dR]RRP-OH) is 256

----------
- protocol: Critical aggregation concentration, 1,8-ANS fluorescence
- Format: physicochemical
- experimental_conditions: 1,8-ANS 1 × 10^−6 M, peptide 2-256 × 10^−6 M in deionized water, 1 h, ex 360 nm, em 420–670 nm, linear fitting of fluorescence intensities
Non-standard residues stand in square brackets, D forms with d. Residues, ends and D or L forms follow the SMILES beside them. ξ: configuration not given here. 2Nal = N[C@@H](Cc1ccc2ccccc2c1)C(=O)O; Ahp(2) = CCCCC[C@H](N)C(=O)O; ξAhp(2) = CCCCCC(N)C(=O)O
Think of 6 µM as a floor: if critical aggregation concentration (CAC) stands on it or above, it is label 1; beneath it, label 0.

Some entries whose results are on file:
N=C(N)NCCC[C@H](NC(=O)[C@@H](CCCNC(=N)N)NC(=O)[C@H](Cc1cccc2ccccc12)NC(=O)[C@H](Cc1cccc2ccccc12)NC(=O)[C@H](Cc1cccc2ccccc12)NC(=O)[C@@H](N)Cc1cccc2ccccc12)C(=O)N[C@@H](CCCNC(=N)N)C(=O)N1CCC[C@H]1C(=O)O (stereo in doubt) [Peptide N4] ... label 0
N=C(N)NCCC[C@H](NC(=O)[C@H](Cc1ccc2ccccc2c1)NC(=O)[C@H](Cc1ccc2ccccc2c1)NC(=O)[C@H](Cc1ccc2ccccc2c1)NC(=O)[C@H](Cc1ccc2ccccc2c1)NC(=O)[C@@H](N)Cc1ccc2ccccc2c1)C(=O)N[C@H](CCCNC(=N)N)C(=O)N[C@@H](CCCNC(=N)N)C(=O)N1CCC[C@H]1C(=O)O [Peptide N5] (H-[2Nal][2Nal][2Nal][2Nal][2Nal]R[dR]RP-OH) ... label 1
CCCCCC(N)C(=O)NC(CCCCC)C(=O)NC(CCCCC)C(=O)NC(CCCCC)C(=O)NC(CCCCC)C(=O)N[C@H](CCCNC(=N)N)C(=O)N[C@@H](CCCNC(=N)N)C(=O)N[C@@H](CCCNC(=N)N)C(=O)N1CCC[C@H]1C(=O)O (stereo partly drawn) [Peptide B5] (H-[ξAhp(2)][ξAhp(2)][ξAhp(2)][ξAhp(2)][ξAhp(2)][dR]RRP-OH; N-terminus assumed) ... label 0
N=C(N)NCCC[C@H](NC(=O)[C@H](Cc1ccc2ccccc2c1)NC(=O)[C@H](Cc1ccc2ccccc2c1)NC(=O)[C@H](Cc1ccc2ccccc2c1)NC(=O)[C@H](Cc1ccc2ccccc2c1)NC(=O)[C@H](Cc1ccc2ccccc2c1)NC(=O)[C@@H](N)Cc1ccc2ccccc2c1)C(=O)N[C@H](CCCNC(=N)N)C(=O)N[C@@H](CCCNC(=N)N)C(=O)N1CCC[C@H]1C(=O)O [Peptide N6] (H-[2Nal][2Nal][2Nal][2Nal][2Nal][2Nal]R[dR]RP-OH) ... label 1
CCCCC[C@H](NC(=O)[C@H](CCCCC)NC(=O)[C@H](CCCCC)NC(=O)[C@@H](N)CCCCC)C(=O)N[C@@H](CCCCC)C(=O)N[C@@H](CCCCC)C(=O)N[C@H](CCCNC(=N)N)C(=O)N[C@@H](CCCNC(=N)N)C(=O)N[C@@H](CCCNC(=N)N)C(=O)N1CCC[C@H]1C(=O)O [Peptide B6] (H-[Ahp(2)][Ahp(2)][Ahp(2)][Ahp(2)][Ahp(2)][Ahp(2)][dR]RRP-OH; N-terminus and C-terminus assumed) ... label 0

Ask: Determine whether this compound has critical aggregation concentration (CAC) no lower than 6 µM: N=C(N)NCCC[C@H](NC(=O)[C@H](Cc1ccc2ccccc2c1)NC(=O)[C@H](Cc1ccc2ccccc2c1)NC(=O)[C@@H](N)Cc1ccc2ccccc2c1)C(=O)N[C@H](CCCNC(=N)N)C(=O)N[C@@H](CCCNC(=N)N)C(=O)N1CCC[C@H]1C(=O)O [Peptide N3] (H-[2Nal][2Nal][2Nal]R[dR]RP-OH)
Result: label 1

----------
Reported MIC, E. coli 078 by item:
- System: E. coli 078
- Assay type: cell-based, Escherichia coli
Non-standard residues stand in square brackets, D forms with d. Residues, ends and D or L forms follow the SMILES beside them. *: point of attachment. 2Nal = N[C@@H](Cc1ccc2ccccc2c1)C(=O)O; 1Naphthoyl = O=C(c1cccc2ccccc12)*; Decanoyl = CCCCCCCCCC(=O)*
Give just the numeric value; µM need not be written.

In the examples that follow, each entry is paired with its recorded MIC, E. coli 078.
CCCCCCCCCC(=O)N[C@H](CCCNC(=N)N)C(=O)N[C@@H](CCCNC(=N)N)C(=O)N[C@@H](CCCNC(=N)N)C(=O)N1CCC[C@H]1C(=O)O [Peptide C10] (Decanoyl-[dR]RRP-OH) ... 256
C[C@H](N)C(=O)N[C@@H](C)C(=O)N[C@@H](C)C(=O)N[C@@H](C)C(=O)N[C@H](CCCNC(=N)N)C(=O)N[C@@H](CCCNC(=N)N)C(=O)N[C@@H](CCCNC(=N)N)C(=O)N1CCC[C@H]1C(=O)O [Peptide A4] (H-AAAA[dR]RRP-OH) ... 256
C[C@H](N)C(=O)N[C@@H](C)C(=O)N[C@@H](C)C(=O)N[C@H](CCCNC(=N)N)C(=O)N[C@@H](CCCNC(=N)N)C(=O)N[C@@H](CCCNC(=N)N)C(=O)N1CCC[C@H]1C(=O)O [Peptide A3] (H-AAA[dR]RRP-OH) ... 256
N=C(N)NCCC[C@H](NC(=O)[C@H](Cc1ccc2ccccc2c1)NC(=O)[C@H](Cc1ccc2ccccc2c1)NC(=O)[C@H](Cc1ccc2ccccc2c1)NC(=O)[C@H](Cc1ccc2ccccc2c1)NC(=O)[C@@H](N)Cc1ccc2ccccc2c1)C(=O)N[C@H](CCCNC(=N)N)C(=O)N[C@@H](CCCNC(=N)N)C(=O)N1CCC[C@H]1C(=O)O [Peptide N5] (H-[2Nal][2Nal][2Nal][2Nal][2Nal]R[dR]RP-OH) ... 256
N=C(N)NCCC[C@H](NC(=O)[C@@H](CCCNC(=N)N)NC(=O)[C@H](Cc1cccc2ccccc12)NC(=O)[C@H](Cc1cccc2ccccc12)NC(=O)[C@H](Cc1cccc2ccccc12)NC(=O)[C@@H](N)Cc1cccc2ccccc12)C(=O)N[C@@H](CCCNC(=N)N)C(=O)N1CCC[C@H]1C(=O)O (stereo in doubt) [Peptide N4] ... 8
N=C(N)NCCC[C@H](NC(=O)[C@H](Cc1ccc2ccccc2c1)NC(=O)[C@H](Cc1ccc2ccccc2c1)NC(=O)[C@@H](N)Cc1ccc2ccccc2c1)C(=O)N[C@H](CCCNC(=N)N)C(=O)N[C@@H](CCCNC(=N)N)C(=O)N1CCC[C@H]1C(=O)O [Peptide N3] (H-[2Nal][2Nal][2Nal]R[dR]RP-OH) ... 8

Query molecule follows.
Note to self: MIC, E. coli 078 of N=C(N)NCCC[C@H](NC(=O)c1cccc2ccccc12)C(=O)N[C@H](CCCNC(=N)N)C(=O)N[C@@H](CCCNC(=N)N)C(=O)N1CCC[C@H]1C(=O)O [Nap] (1Naphthoyl-R[dR]RP-OH) with E. coli 078 was 256
